test: in vitro; conditions: rat, gh3-tre-luc cells, AC50 (uM) modified / 1000, Tox21_110001=Tox21_110993; viability, 1 nM T3 present, 24 h
Measured property: CC50 at 24 h

State, in one line, measured CC50 at 24 h of COP(=S)(OC)SCN1C(=O)c2ccccc2C1=O [Phosmet]
> 50 µM

* * *

system: GH3-TRE-Luc cell line; details: read-out: AC50 (uM) modified / 1000; Tox21_110001=Tox21_110151; viability, 1 nM T3 present, 24 h
Measured property: CC50 (µM)
The response must be a number in µM with no trailing unit.

State, in one line, measured CC50 of O=C(NCC1CCCCN1)c1cc(OCC(F)(F)F)ccc1OCC(F)(F)F (stereo not shown) [Flecainide]
36.6

* * *

experiment: in vitro; settings: rat, gh3-tre-luc cells, AC50 (uM) modified / 1000, Tox21_110001=Tox21_201545; viability, 1 nM T3 present, 24 h
Measured property: CC50 at 24 h

State, in one line, measured CC50 at 24 h of `Oc1cc(Cl)c(Cl)cc1Cl`
> 90 µM

* * *

assay: in vitro; conditions: rat, gh3-tre-luc cells, AC50 (uM) modified / 1000
Known CC50 at 24 h of a selection of compounds

Study these solved cases before continuing.
>>> df
                                   compound  measured_property  reported_value
0  C[C@]12CC[C@H]3[C@@H](CC[C@@]45O[C@@H]4C(O)=C(C#N)C[C@]35C)[C@@H]1CC[C@@H]2O [Trilostane]       CC50 at 24 h         > 90 µM
1  O=C1N=C2SCCN2C(=O)C1Cc1ccc(Cl)cc1 (stereo not drawn) [Nuclomedone]       CC50 at 24 h         > 50 µM

State, in one line, measured CC50 at 24 h of COCCOCCOCCO [2-[2-(2-Methoxyethoxy)ethoxy]ethanol]
> 90 µM

State, in one line, measured CC50 at 24 h of Cc1cccc(C(=O)O)c1[N+](=O)[O-] [3-Methyl-2-nitrobenzoic acid]
> 90 µM

State, in one line, measured CC50 at 24 h of CC(=O)N[C@@H](CCC(=O)O)C(=O)O [N-Acetyl-L-glutamic acid]
> 50 µM

State, in one line, measured CC50 at 24 h of OC(c1ccc(Cl)cc1)(c1ccc(Cl)cc1)C(Cl)(Cl)Cl [Dicofol]
79.5 µM

State, in one line, measured CC50 at 24 h of O=C(O)c1cccc(C(=O)O)c1 [1,3-Benzenedicarboxylic acid]
> 90 µM

State, in one line, measured CC50 at 24 h of OC(c1ccc(Cl)cc1)(c1cncnc1)c1ccccc1Cl (stereo not drawn) [Fenarimol]
> 90 µM

State, in one line, measured CC50 at 24 h of COc1ccc(-c2noc(CC(=O)O)c2-c2ccc(OC)cc2)cc1 [Mofezolac]
> 50 µM

State, in one line, measured CC50 at 24 h of COC(=O)C(C)Oc1ccc(Oc2ccc(Cl)cc2Cl)cc1 (stereo not drawn) [Diclofop-methyl]
> 90 µM

State, in one line, measured CC50 at 24 h of CCCCC(F)(F)[C@@]1(O)CC[C@H]2[C@@H](CC(=O)[C@@H]2CCCCCCC(=O)O)O1 [Lubiprostone]
> 50 µM

State, in one line, measured CC50 at 24 h of O=C(O)[C@@H]1CCCN1 [Proline]
> 50 µM

State, in one line, measured CC50 at 24 h of C/C=C/C=O [Crotonaldehyde]
> 90 µM

State, in one line, measured CC50 at 24 h of O=C(O)COc1ccc(CCNS(=O)(=O)c2ccccc2)s1 [Linotroban]
> 50 µM

State, in one line, measured CC50 at 24 h of Cc1cc(C(C)(C)CC(C)(C)C)ccc1OCCOCC[N+](C)(C)Cc1ccccc1 [Methylbenzethonium chloride]
9.38 µM

State, in one line, measured CC50 at 24 h of NC(=O)OC[C@@H]1[C@H](NC(=O)/C(=N\OCC(=O)O)c2csc(N)n2)C(=O)N1S(=O)(=O)O [Carumonam sodium]
> 50 µM

* * *

tested on: GH3-TRE-Luc cell line; conditions: read-out: AC50 (uM) modified / 1000; Tox21_110001=Tox21_111184; viability, 1 nM T3 present, 24 h
Measured property: CC50 (µM)
The response must be a number in µM with no trailing unit.

State, in one line, measured CC50 of `NCCNc1cccc2ccccc12`
10.9

* * *

test: in vitro; settings: rat, gh3-tre-luc cells, AC50 (uM) modified / 1000, Tox21_110001=Tox21_113080; viability, 1 nM T3 present, 24 h
Measured property: CC50 at 24 h

State, in one line, measured CC50 at 24 h of COP(=S)(OC)Oc1ccc(S(N)(=O)=O)cc1 [Cythioate]
> 50 µM

* * *

assay: in vitro; settings: rat, gh3-tre-luc cells, AC50 (uM) modified / 1000, Tox21_110001=Tox21_201293; viability, 1 nM T3 present, 24 h
Measured property: CC50 at 24 h

State, in one line, measured CC50 at 24 h of `Cc1cc(O)ccc1Cl`
> 90 µM

* * *

tested on: GH3-TRE-Luc cell line; conditions: read-out: AC50 (uM) modified / 1000; Tox21_110001=Tox21_300210; viability, 1 nM T3 present, 24 h
Measured property: CC50

State, in one line, measured CC50 of c1ccc(C(O[C@@H]2CCCN(CCc3ccc4c(c3)OCO4)C2)c2ccccc2)cc1 [Zamifenacin]
40 µM

* * *

test: in vitro; conditions: rat, gh3-tre-luc cells, AC50 (uM) modified / 1000, Tox21_110001=Tox21_111273; viability, 1 nM T3 present, 24 h
Measured property: CC50 at 24 h

State, in one line, measured CC50 at 24 h of `COc1ccccc1N1CCNCC1`
> 50 µM

* * *

test: in vitro; conditions: rat, gh3-tre-luc cells, AC50 (uM) modified / 1000, Tox21_110001=Tox21_202411; viability, 1 nM T3 present, 24 h
Measured property: CC50 at 24 h

State, in one line, measured CC50 at 24 h of CC(C)CON=O [Isobutyl nitrite]
> 90 µM

* * *

test system: GH3-TRE-Luc cell line; details: read-out: AC50 (uM) modified / 1000; Tox21_110001=Tox21_202345; viability, 1 nM T3 present, 24 h
Measured property: CC50 (µM)
The response must be a number in µM with no trailing unit.

State, in one line, measured CC50 of Oc1ccc(O)cc1 [Hydroquinone]
32.2

* * *

assay: in vitro; conditions: rat, gh3-tre-luc cells, AC50 (uM) modified / 1000, Tox21_110001=Tox21_110442; viability, 1 nM T3 present, 24 h
Measured property: CC50 at 24 h

State, in one line, measured CC50 at 24 h of `C[C@@H]1O[C@@H](O[C@@H]2C=C3CC[C@@H]4[C@H](CC[C@]5(C)[C@@H](c6ccc(=O)oc6)CC[C@]45O)[C@@]3(C)CC2)[C@H](O)[C@H](O)[C@H]1O`
> 20 µM

* * *

experiment: in vitro; details: rat, gh3-tre-luc cells, AC50 (uM) modified / 1000, Tox21_110001=Tox21_200342; viability, 1 nM T3 present, 24 h
Measured property: CC50 at 24 h

State, in one line, measured CC50 at 24 h of OCC(Cl)CCl (stereo not shown) [2,3-Dichloro-1-propanol]
> 90 µM

* * *

assay: in vitro; settings: rat, gh3-tre-luc cells, AC50 (uM) modified / 1000
Measured property: CC50 at 24 h

State, in one line, measured CC50 at 24 h of `CSc1c(Cl)c(Cl)c(Cl)c(Cl)c1Cl`
81.6 µM

* * *

assay: in vitro; details: rat, gh3-tre-luc cells, AC50 (uM) modified / 1000, Tox21_110001=Tox21_302867; viability, 1 nM T3 present, 24 h
Measured property: CC50 at 24 h

State, in one line, measured CC50 at 24 h of `O=NN1CCOCC1`
> 90 µM

* * *

experiment: in vitro; conditions: rat, gh3-tre-luc cells, AC50 (uM) modified / 1000, Tox21_110001=Tox21_200362; viability, 1 nM T3 present, 24 h
Measured property: CC50 at 24 h

State, in one line, measured CC50 at 24 h of CC(Cl)CCl (stereo not shown)
> 90 µM

* * *

experiment: in vitro; settings: rat, gh3-tre-luc cells, AC50 (uM) modified / 1000, Tox21_110001=Tox21_300794; viability, 1 nM T3 present, 24 h
Measured property: CC50 at 24 h

State, in one line, measured CC50 at 24 h of CCOP(=S)(OCC)SC(CCl)N1C(=O)c2ccccc2C1=O (stereo not shown)
> 90 µM

Cited source for all entries: paper PMC6792352
